The values you see were collected from patent US6794379B2.

Where a name gives a salt, the structure may show the parent alone.
measurement-label: melting point

Examples with answers:
{"columns": ["compound", "melting point"],
 "data": [
  ["CCOc1ccc(-n2c(C(C)N(Cc3ccccn3)C(=O)Cc3ccc(C(F)(F)F)cc3)nc3ccccc3c2=O)cc1 (stereo not drawn) (as salt: hydrochloride)", "167.5 °C"],
  ["COc1ccc(-n2c(C(C)N(CCN3CCCC3)C(=O)Cc3ccc(-c4ccccc4)cc3)nc3ccccc3c2=O)cc1F (stereo not drawn)", "96.9 °C"],
  ["CC(c1nc2ccccc2c(=O)n1-c1ccc(F)cc1)N(CCN(C)C)C(=O)Cc1ccccc1 (stereo not drawn)", "153 °C"],
  ["CCOc1ccc(-n2c(C(C)N(Cc3cccnc3)C(=O)Cc3ccc(F)c(F)c3)nc3ccccc3c2=O)cc1 (stereo not drawn)", "75.5 °C"]
]}

Next compound, melting point to be filled in.
Qu. Query (compound): `C[C@H](c1nc2ccccc2c(=O)n1-c1ccc(F)cc1)N(Cc1nccs1)C(=O)Cc1ccc(C(F)(F)F)cc1` ; field requested: melting point
Ans. 173 to 174 °C
